- Tested on: A549
- test-details: relative viability (normalised to negative control = 1, bortezomib = 0) (fraction); higher = less cytotoxic
- setup-conditions: inflammatory serum-free RHB-A with cytokines + LPS; 5 d + 24 h CellTiter-Blue; compound 300 nM; GSK126 pretreatment: 5 uM GSK126
Collected relative viability values appear next to each entry.

Take a look at these entries with their results.
// query Look up relative viability for this compound: O=C(O)C(=O)O.[NH-][C@@H]1CCCC[C@H]1[NH-].[Pt+2] [Oxaliplatin]
// result 0.79

// query I have this compound here, NC(=O)NO [Hydroxyurea] , and I need its recorded relative viability.
// result 1.09

As a next step, examine the compound that follows.
// query # lookup: relative viability of Cc1cc(Nc2cc(N3CCN(C)CC3)nc(Sc3ccc(NC(=O)C4CC4)cc3)n2)n[nH]1
// result 0.584

* * *

- System: A549
- test-details: relative viability (normalised to negative control = 1, bortezomib = 0) (fraction); higher = less cytotoxic
- setup-conditions: inflammatory serum-free RHB-A with cytokines + LPS; 5 d + 24 h CellTiter-Blue; compound 30 nM; GSK126 pretreatment: 5 uM GSK126
Where a name gives a salt, the structure may show the parent alone.
Reported relative viability values for the following compounds.
Form rule: numeric answer, no unit written next to it.

// query Which relative viability is reported with A549 for this entry: C=CC(=O)Nc1cccc(Oc2nc(Nc3ccc(N4CCN(C)CC4)cc3)ncc2Cl)c1 ?
// result 0.802

// query Request: relative viability, test system A549, entry CC(C)c1cnn2c(NCc3ccccc3)cc(NCCCCCCN)nc12 [BS-181 hydrochloride]
// result 0.804

// query Find the measured relative viability: item O=C(O)C(=O)O.[NH-][C@@H]1CCCC[C@H]1[NH-].[Pt+2] , target or system A549.
// result 0.792

* * *

- Test system: A549
- test-details: relative viability (normalised to negative control = 1, bortezomib = 0) (fraction); higher = less cytotoxic
- setup-conditions: inflammatory serum-free RHB-A with cytokines + LPS; 5 d + 24 h CellTiter-Blue; compound 30 nM; GSK126 pretreatment: none (vehicle)
parameter-measured: relative viability
Respond using a number only.

Check out these entries, answers already filled in.
// query Entry Nc1ncnc2c1c(-c1cnc3[nH]ccc3c1)nn2C1CCCC1 has what relative viability?
// result 0.797

// query Bench note: what relative viability did O=C(Nc1ccc(OC(F)(F)F)cc1)c1sccc1NCc1ccnc2ccccc12 show?
// result 1.05

// query Sample C=CC(=O)Nc1cc2c(Nc3ccc(F)c(Cl)c3)ncnc2cc1OCCCN1CCOCC1 — what was its relative viability?
// result 0.595

// query State the recorded relative viability for this entry: C#CCC(Cc1cnc2nc(N)nc(N)c2n1)c1ccc(C(=O)N[C@@H](CCC(=O)O)C(=O)O)cc1 (stereo partly drawn) [pralatrexate]
// result 0.859

Next:
// query // relative viability lookup, key: COc1nc(N)nc2c1ncn2[C@@H]1O[C@H](CO)[C@@H](O)[C@@H]1O
// result 0.875

// query Look up relative viability for this compound: CC[C@@H]1C(=O)N(C)c2cnc(Nc3ccc(C(=O)NC4CCC(N5CCN(CC6CC6)CC5)CC4)cc3OC)nc2N1C(C)C (stereo partly drawn)
// result 0.38

// query If you can, please state the reported relative viability value of COc1cc2ncnc(Nc3cccc(Br)c3)c2cc1OC .
// result 0.976

// query Quick one: relative viability of C#Cc1cccc(Nc2ncnc3cc(OCCOC)c(OCCOC)cc23)c1 ?
// result 0.823

* * *

- System: A549
- test-details: relative viability (normalised to negative control = 1, bortezomib = 0) (fraction); higher = less cytotoxic
- setup-conditions: inflammatory serum-free RHB-A with cytokines + LPS; 5 d + 24 h CellTiter-Blue; compound 30 nM; GSK126 pretreatment: none (vehicle)
parameter-measured: relative viability
Response field accepts a number only; no unit should be typed.

Here are 2 compounds together with their reported answers.
// query Endpoint output: relative viability of Nc1ncn([C@H]2C[C@H](O)[C@@H](CO)O2)c(=O)n1 . Value?
// result 0.715

// query Find the recorded relative viability belonging to O=C(O)c1ccc2c(c1)nc(Nc1cccc(Cl)c1)c1ccncc12 and report it.
// result 0.761

Others:
// query So what does the record say about relative viability for CO[C@H]1C[C@@H]2CC[C@@H](C)[C@@](O)(O2)C(=O)C(=O)N2CCCC[C@H]2C(=O)O[C@H]([C@H](C)C[C@@H]2CC[C@@H](OP(C)(C)=O)[C@H](OC)C2)CC(=O)[C@H](C)/C=C(\C)[C@@H](O)[C@@H](OC)C(=O)[C@H](C)C[C@H](C)/C=C/C=C/C=C/1C ?
// result 0.591

// query Bench note: what relative viability did CS(=O)(=O)OCCCCOS(C)(=O)=O show?
// result 0.865

// query What value of relative viability has been recorded for this entry: O=C1NC(=O)/C(=C\c2ccc3nccnc3c2)S1
// result 0.854

// query What value of measured relative viability is listed for O=c1[nH]cc(F)c(=O)[nH]1 ?
// result 0.911

// query Entry CNC(=O)c1ccc(C)c(-n2c(C)cc(OCc3ccc(F)cc3F)c(Br)c2=O)c1 : reported relative viability = ?
// result 0.936

// query Quick one: relative viability for CC(=O)Nc1cccc(-n2c(=O)n(C3CC3)c(=O)c3c(Nc4ccc(I)cc4F)n(C)c(=O)c(C)c32)c1 ?
// result 0.171

* * *

- Tested on: A549
- test-details: relative viability (normalised to negative control = 1, bortezomib = 0) (fraction); higher = less cytotoxic
- setup-conditions: inflammatory serum-free RHB-A with cytokines + LPS; 5 d + 24 h CellTiter-Blue; compound 300 nM; GSK126 pretreatment: none (vehicle)
compounds and their reported relative viability

// query Look up relative viability for this compound: CCCNC(=O)Nc1ccc(Oc2ncnc3cc(OC)c(OC)cc23)cc1Cl
// result 0.895

Next:
// query Report relative viability for Cc1ccc(-c2cc(C(F)(F)F)nn2-c2ccc(S(N)(=O)=O)cc2)cc1 please.
// result 0.908

// query Field request: relative viability | item: Cn1cc(-c2ccc3nnc(Sc4ccc5ncccc5c4)n3n2)cn1
// result 0.903

* * *

- System: A549
- test-details: relative viability (normalised to negative control = 1, bortezomib = 0) (fraction); higher = less cytotoxic
- setup-conditions: inflammatory serum-free RHB-A with cytokines + LPS; 5 d + 24 h CellTiter-Blue; compound 300 nM; GSK126 pretreatment: 5 uM GSK126
parameter-measured: relative viability
Respond numerically, and do not add a unit to the figure.

// query relative viability lookup needed for COc1cccc2cc(-c3nc(C4CCC(C(=O)O)CC4)n4ncnc(N)c34)[nH]c12 (configuration not stated) , thanks.
// result 0.588

// query State the recorded relative viability for this entry: CC(=O)O[C@@]12CO[C@@H]1C[C@H](O)[C@@]1(C)C(=O)[C@H](O)C3=C(C)[C@@H](OC(=O)[C@H](O)[C@@H](NC(=O)OC(C)(C)C)c4ccccc4)C[C@@](O)([C@@H](OC(=O)c4ccccc4)[C@H]21)C3(C)C [Docetaxel]
// result 0.583

* * *

- System: A549
- test-details: relative viability (normalised to negative control = 1, bortezomib = 0) (fraction); higher = less cytotoxic
- setup-conditions: inflammatory serum-free RHB-A with cytokines + LPS; 5 d + 24 h CellTiter-Blue; compound 30 nM; GSK126 pretreatment: none (vehicle)
Labelling: relative viability reported below 0.8 becomes yes; at or above becomes no.

// query Determine whether this compound shows relative viability lower than 0.8 (ties excluded): O=C(NC[C@H](O)CO)c1ccncc1Nc1ccc(I)cc1F
// result yes

// query is_below(relative viability, 0.8) for CCC[C@H](NC(=O)/C(C#N)=C/c1cccc(Br)n1)c1ccccc1 ?
// result no

// query Find out if reported relative viability for Cc1ccc(C(=O)Nc2cccc(C(F)(F)F)c2)cc1Nc1nc(-c2cccnc2)nc2c1cnn2C is less than 0.8
// result no

// query Identify whether the compound CC(C)C[C@H](NC(=O)[C@H](CCc1ccccc1)NC(=O)CN1CCOCC1)C(=O)N[C@@H](Cc1ccccc1)C(=O)N[C@@H](CC(C)C)C(=O)[C@@]1(C)CO1 [Carfilzomib] records relative viability below 0.8.
// result yes

// query Given the entry CO[C@H]1C[C@@H]2CC[C@@H](C)[C@@](O)(O2)C(=O)C(=O)N2CCCC[C@H]2C(=O)O[C@H]([C@H](C)C[C@@H]2CC[C@@H](OC(=O)C(C)(CO)CO)[C@H](OC)C2)CC(=O)[C@H](C)/C=C(\C)[C@@H](O)[C@@H](OC)C(=O)[C@H](C)C[C@H](C)/C=C/C=C/C=C/1C [CCI-779; Temsirolimus] , would its reported relative viability be below 0.8?
// result yes

Consider the record given below.
// query Regarding N#C/C(=C/c1ccc(O)c(O)c1)C(=O)NCc1ccccc1 [AG-490; Tyrphostin AG 490] , kindly confirm whether its relative viability is beneath 0.8.
// result no
